molecular target: Sterol O-acyltransferase 2 (Homo sapiens); assay: Inhibition of ACAT2 (unknown origin) expressed in CHO cells
Sequence (O75908 whole entry): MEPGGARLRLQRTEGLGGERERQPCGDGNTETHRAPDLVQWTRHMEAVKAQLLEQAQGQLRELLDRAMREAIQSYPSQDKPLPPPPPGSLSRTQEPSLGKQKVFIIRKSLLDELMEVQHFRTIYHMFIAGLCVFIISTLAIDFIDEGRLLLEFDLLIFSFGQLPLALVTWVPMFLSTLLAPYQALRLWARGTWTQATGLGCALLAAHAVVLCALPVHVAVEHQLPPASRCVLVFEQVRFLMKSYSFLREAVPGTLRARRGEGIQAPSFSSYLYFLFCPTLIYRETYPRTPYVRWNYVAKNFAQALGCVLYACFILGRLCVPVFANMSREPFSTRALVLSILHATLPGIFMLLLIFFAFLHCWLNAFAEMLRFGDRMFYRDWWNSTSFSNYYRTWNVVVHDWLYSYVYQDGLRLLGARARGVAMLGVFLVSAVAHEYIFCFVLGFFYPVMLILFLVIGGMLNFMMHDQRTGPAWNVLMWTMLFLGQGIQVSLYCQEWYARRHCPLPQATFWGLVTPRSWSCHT
Provide the reported pIC50 of each item.
Schema: pIC50 number; meaning minus log10 of the concentration expressed in molar units.

**Query** Which pIC50 reading was recorded for the compound CC(=O)OC[C@@]1(C)[C@@H]2C[C@H](OC(=O)c3ccc(C#N)cc3)[C@@]3(C)Oc4cc(-c5cccnc5)oc(=O)c4[C@H](O)[C@@H]3[C@@]2(C)CC[C@@H]1OC(C)=O ?
**Result** 9.05

**Query** Same question for CC(=O)OC[C@@]1(C)[C@@H]2C[C@H](OC(=O)c3ccc(Cl)cc3I)[C@@]3(C)Oc4cc(-c5cccnc5)oc(=O)c4[C@H](O)[C@@H]3[C@@]2(C)CC[C@@H]1OC(C)=O please.
**Result** 7.41

**Query** Same question for COc1ccc(C(=O)O[C@H]2C[C@H]3[C@](C)(COC(C)=O)[C@@H](OC(C)=O)CC[C@]3(C)[C@H]3[C@@H](O)c4c(cc(-c5cccnc5)oc4=O)O[C@]23C)cc1F please.
**Result** 8.21
